assay: collision cross section in nitrogen (drift tube, single-field); higher = larger gas-phase ion size; conditions: ion type: [M+Na]; ion source: ESI; ion mode: Positive;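 further: chemical standards at 10 µM analysed by drift tube IMS-QTOF MS in about 3.95 torr nitrogen, mean of duplicate injections differing ≤1%, mass error below 10 ppm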
If the reported collision cross section in nitrogen equals or exceeds 200 Å², assign criterion met. If not, assign criterion not met.

{"columns": ["Compound", "Answer Label"],
 "data": [
  ["COP(=S)(OC)Oc1c(Cl)cc(C)cc1Cl", "criterion not met"],
  ["OC[C@H]1O[C@@H]2O[C@H]3[C@H](O)[C@@H](O)[C@@H](O[C@H]4[C@H](O)[C@@H](O)[C@@H](O[C@H]5[C@H](O)[C@@H](O)[C@@H](O[C@H]6[C@H](O)[C@@H](O)[C@@H](O[C@H]7[C@H](O)[C@@H](O)[C@@H](O[C@H]1[C@H](O)[C@H]2O)O[C@@H]7CO)O[C@@H]6CO)O[C@@H]5CO)O[C@@H]4CO)O[C@@H]3CO", "criterion met"],
  ["CC(=O)[C@@]1(O)CC[C@H]2[C@@H]3C[C@H](C)C4=CC(=O)C=C[C@]4(C)[C@@]3(F)[C@@H](O)C[C@@]21C", "criterion met"],
  ["CC(C)(Oc1ccc(CCNC(=O)c2ccc(Cl)cc2)cc1)C(=O)O [Bezafibrate]", "criterion not met"],
  ["CCN(Cc1cccc(S(=O)(=O)O)c1)c1ccccc1 [3-((Ethylphenylamino)methyl)benzenesulfonic acid]", "criterion not met"],
  ["Cn1c(=O)c2[nH]cnc2n(C)c1=O", "criterion not met"]
]}

----------
assay: collision cross section in nitrogen (drift tube, single-field); higher = larger gas-phase ion size; conditions: ion type: [M-H]; ion source: ESI; ion mode: Negative
Structures can show the parent of a compound that is named as a salt.

{"columns": ["Compound", "Uom", "collision cross section in nitrogen"],
 "data": [
  ["CO[C@@H]1COCC[C@@H]1N[C@@H]1CC[C@@](C(=O)N2CCc3ncc(C(F)(F)F)cc3C2)(C(C)C)C1 [MK-812]", "Å²", 207.8],
  ["O=[N+]([O-])c1ccccc1O [Sodium 2-nitrophenolate]", "Å²", 121.6],
  ["O=C1c2c(O)ccc(Nc3ccc(CCO)cc3)c2C(=O)c2c([N+](=O)[O-])ccc(O)c21 [C.I. Disperse Blue 27]", "Å²", 201.7],
  ["Nc1cc(N)cc(C(=O)O)c1 [3,5-Diaminobenzoic acid]", "Å²", 136.6],
  ["Cc1ccc(O)c(-n2nc3ccccc3n2)c1 [2-(2H-Benzotriazol-2-yl)-4-methylphenol]", "Å²", 155.4],
  ["Nc1nc2ccccc2[nH]1 [2-Aminobenzimidazole]", "Å²", 123.5],
  ["CCCCC(CC)CCC(CC(C)C)OS(=O)(=O)O (stereo not drawn) [7-Ethyl-2-methyl-4-undecanolsulfate, sodium salt]", "Å²", 175.2],
  ["Cc1ccc(C)c(S(=O)(=O)O)c1 [Sodium 2,5-dimethylbenzenesulfonate]", "Å²", 138.5]
]}

----------
assay: collision cross section in nitrogen (drift tube, single-field); higher = larger gas-phase ion size; details: ion type: [M+H]; ion source: ESI; ion mode: Positive
Counter-ions that a name gives are not always drawn.
Readout: collision cross section in nitrogen

{"columns": ["Compound", "Recorded Value"],
 "data": [
  ["c1coc(CNc2[nH]cnc3ncnc2-3)c1 [Kinetin]", "144.4 Å²"],
  ["COc1ccc(N=Nc2cc(C)c(N=Nc3ccc(S(=O)(=O)O)cc3)cc2OC)cc1 [C.I. Acid Orange 156]", "219.7 Å²"],
  ["CCCCCCCCCCCCN [Dodecylamine hydrochloride]", "164 Å²"],
  ["CC(C)c1nnc2ccc(-c3ocnc3-c3cc(F)ccc3F)cn12", "177 Å²"],
  ["COc1ccc(-c2coc3cc(O)cc(O)c3c2=O)cc1 [Biochanin A]", "164.1 Å²"],
  ["CC(C)c1ccc2ncccc2c1 [6-(1-Methylethyl)quinoline]", "138.5 Å²"],
  ["CNC(=C[N+](=O)[O-])NCCSCc1csc(CN(C)C)n1 [Nizatidine]", "171 Å²"],
  ["CCOC(=O)NNc1nncc2ccccc12 [Todralazine hydrochloride]", "151.8 Å²"],
  ["Cc1ncc([C@@H](CCCCCCc2ccc3c(n2)NCCC3)CC(=O)O)cn1", "192.4 Å²"]
]}

----------
assay: collision cross section in nitrogen (drift tube, single-field); higher = larger gas-phase ion size; details: ion type: [M+H]; ion source: APCI; ion mode: Positive
If the reported collision cross section in nitrogen equals or exceeds 200 Å², assign class 1. If not, assign class 0.

{"columns": ["Compound", "Answer Label"],
 "data": [
  ["CC(C)c1c(C(=O)Nc2ccccc2)c(-c2ccccc2)c(-c2ccc(F)cc2)n1CC[C@@H](O)C[C@@H](O)CC(=O)O [Atorvastatin calcium]", "class 1"],
  ["CC(O)CN(CCCN(C)C)CCCN(C)C (configuration not stated) [1-{Bis[3-(dimethylamino)propyl]amino}propan-2-ol]", "class 0"],
  ["O=C1C[C@@H]2OCC=C3CN4CC[C@]56c7ccccc7N1[C@H]5[C@H]2[C@H]3C[C@H]46 [Strychnine]", "class 0"],
  ["CC1(C(=O)Nc2ccc(O)c(Cl)c2Cl)CCCCC1 [Fenhexamid]", "class 0"],
  ["CNC(=O)CSP(=O)(OC)OC [Omethoate]", "class 0"],
  ["COc1ccc(S(=O)(=O)N2C(=O)[C@@](c3ccccc3OC)(N3C[C@H](O)C[C@H]3C(=O)N(C)C)c3cc(Cl)ccc32)c(OC)c1 [Nelivaptan]", "class 1"]
]}

----------
assay: collision cross section in nitrogen (drift tube, single-field); higher = larger gas-phase ion size; conditions: ion type: [M+Na]; ion source: ESI; ion mode: Positive
Counter-ions that a name gives are not always drawn.

{"columns": ["Compound", "Uom", "collision cross section in nitrogen"],
 "data": [
  ["COP(=O)(OC)O/C(C)=C/C(=O)N(C)C [Dicrotophos]", "Å²", 153.2],
  ["COc1cc(OC)nc(Oc2cccc(Oc3nc(OC)cc(OC)n3)c2C(=O)O)n1 [Bispyribac-sodium]", "Å²", 198.6],
  ["COc1ccn(C)c(=O)c1C#N [Ricinine]", "Å²", 143],
  ["CCOP(=S)(OCC)SCS(=O)(=O)C(C)(C)C [Terbufos sulfone]", "Å²", 171.3],
  ["CCn1cc(C(=O)O)c(=O)c2ccc(C)nc21 [Nalidixic acid]", "Å²", 161.1],
  ["Clc1cccc(Cl)c1Cl [1,2,3-Trichlorobenzene]", "Å²", 144.8],
  ["Cn1cnc([N+](=O)[O-])c1Sc1ncnc2nc[nH]c12 [Azathioprine]", "Å²", 172.4],
  ["CCOC(=O)c1ccc([C@H]2CC[C@H](NC[C@H](O)COc3ccc(O)c(NS(C)(=O)=O)c3)CC2)cc1", "Å²", 230.3],
  ["Cc1ccccc1C(=O)Nc1cccc(OC(C)C)c1 [Mepronil]", "Å²", 180.1],
  ["CCCCCCCCOC(=O)/C=C\\C(=O)OCCCCCCCC [2-Butenedioic acid (2Z)-, dioctyl ester]", "Å²", 206.4],
  ["CC(C)(C)c1ccc(CSc2cnn(C(C)(C)C)c(=O)c2Cl)cc1 [Pyridaben]", "Å²", 208.8],
  ["CC(C)C[C@H]1C(=O)N2CCC[C@H]2[C@]2(O)O[C@](NC(=O)[C@@H]3C=C4c5cccc6[nH]c(Br)c(c56)C[C@H]4N(C)C3)(C(C)C)C(=O)N12 [Bromocriptine mesylate]", "Å²", 248.5],
  ["CCCCNC(=O)NS(=O)(=O)c1ccc(N)cc1 [Carbutamide]", "Å²", 175.6],
  ["COc1cc2c(c(OC)c1OC)-c1ccc(OC)c(=O)cc1[C@@H](NC(C)=O)CC2 [Colchicine]", "Å²", 204.3],
  ["Cc1ccc(N(SC(F)(Cl)Cl)S(=O)(=O)N(C)C)cc1 [Tolylfluanid]", "Å²", 177.6],
  ["CC(=O)OCC(=O)[C@@]12N=C(C)O[C@@H]1C[C@H]1[C@@H]3CCC4=CC(=O)C=C[C@]4(C)[C@H]3[C@@H](O)C[C@@]12C [Deflazacort]", "Å²", 213.4],
  ["CCOc1ccc(NC(=O)CC(C)=O)cc1 [N-(4-Ethoxyphenyl)-3-oxobutanamide]", "Å²", 167.3]
]}

----------
Recorded collision cross section in nitrogen by entry
assay: collision cross section in nitrogen (drift tube, single-field); higher = larger gas-phase ion size; conditions: ion type: [M+H]; ion source: APCI; ion mode: Positive
Readout: collision cross section in nitrogen (Å²)

{"columns": ["Molecule", "Recorded Value"],
 "data": [
  ["CC(=O)Nc1ccc(N=Nc2cc(C)ccc2O)cc1", 167.8],
  ["CC[C@H]1OC(=O)[C@H](C)[C@@H](O[C@H]2C[C@@](C)(OC)[C@@H](O)[C@H](C)O2)[C@H](C)[C@@H](O[C@@H]2O[C@H](C)C[C@H](N(C)C)[C@H]2O)[C@](C)(O)C[C@@H](C)C(=O)[C@H](C)[C@@H](O)[C@]1(C)O", 258.5],
  ["COc1cnc(OC)n2nc(NS(=O)(=O)c3c(OCC(F)F)cccc3C(F)(F)F)nc12", 196],
  ["C[C@]12C=CC(=O)C=C1CC[C@@H]1[C@@H]2[C@@H](O)C[C@@]2(C)[C@H]1CC[C@]2(O)C(=O)CO", 186.4],
  ["O=C(Nc1ccccc1)Nc1cnns1", 148.4],
  ["Cn1c(=O)cc(Oc2ccc(F)cc2F)c2cnc(NCC(C)(C)O)nc21", 192.8],
  ["CN(CCO)CC(O)Cn1cnc2c1c(=O)n(C)c(=O)n2C (configuration not stated) [Xanthinol niacinate]", 171.8]
]}
